Task for the reader: assign each of the following substances its reported Organ weights, Kidneys.
# Measurement Protocol: Organ weights after subcutaneous administration in CD-1 mice (Example 6)
# Assay type: in vivo
# Condition Set: end of study, 50 mg/kg subcutaneously twice a week for 7 weeks
Strand notation (5' to 3'): a small letter for the sugar, then the base; units joined by * are phosphorothioate-linked, units joined directly phosphodiester-linked; [ ] holds rarer units or linkages, { } end groups; capitals alone tell only the bases. k = constrained ethyl (cEt); [5mC] = 5-methylcytosine; d = 2'-deoxy (DNA)
Value expressed in g; do not type the unit.

Problem: Could you share which Organ weights, Kidneys value was measured for 830121 (AGAATCAAGCCCTGGC; 3-10-3 cEt gapmer, further chemistry not given here) [compound 830121] ?
Solution: 0.6

Problem: Now consider 799144 (antisense kT*kT*kG*dG*dG*dT*dT*dA*dT*dG*dA*d[5mC]*dG*kG*kA*k[5mC]) [compound 799144] .
Solution: 0.6

Problem: Now consider 830025 (antisense TTTGTAAATCGAAAGC; 3-10-3 cEt gapmer, further chemistry not given here) [compound 830025] .
Solution: 0.6

Problem: Now consider 829994 (GGAGGCAGGGCCGCGA; 3-10-3 cEt gapmer, further chemistry not given here) [compound 829994] .
Solution: 0.7

Problem: Now consider 790615 (CCAATGAGAATGCTTC; 3-10-3 cEt gapmer, further chemistry not given here) [compound 790615] .
Solution: 0.6

Problem: Now consider 798781 (CGTAAGATTCACAGCA; 3-10-3 cEt gapmer, further chemistry not given here) [compound 798781] .
Solution: 0.6

Problem: Now consider 830027 (antisense kA*kA*k[5mC]*d[5mC]*dA*dT*dT*dT*dA*dT*d[5mC]*dT*dG*kG*kT*kG) [compound 830027] .
Solution: 0.6

* * *

# Tested on: human SMAD7 mRNA
# Measurement Protocol: Antisense inhibition of human SMAD7 mRNA expression in Hep3B cells by 3-10-3 cEt gapmers, 10,000 nM, electroporation (Example 2)
# Assay type: cell-based
# Condition Set: Hep3B cells, electroporation with 10,000 nM antisense oligonucleotide, approximately 24 hours, SMAD7 mRNA by RT-PCR (RTS5062), relative to untreated control cells
Strand notation (5' to 3'): a small letter for the sugar, then the base; units joined by * are phosphorothioate-linked, units joined directly phosphodiester-linked; [ ] holds rarer units or linkages, { } end groups; capitals alone tell only the bases. k = constrained ethyl (cEt); [5mC] = 5-methylcytosine; d = 2'-deoxy (DNA)
Value Type: % Inhibition (%)
Value expressed in %; do not type the unit.

Problem: Could you share which % Inhibition value was measured for 830047 (kT*kT*k[5mC]*d[5mC]*dG*dA*dT*dT*dG*dG*d[5mC]*dA*dG*kG*kT*kT; antisense) [compound 830047] ?
Solution: 42

Problem: Now consider 799905 (antisense kA*kG*kT*d[5mC]*dG*dA*dA*dT*d[5mC]*dA*dT*dT*dT*k[5mC]*kT*k[5mC]) [compound 799905] .
Solution: 53

Problem: Now consider 798735 (antisense k[5mC]*k[5mC]*k[5mC]*d[5mC]*d[5mC]*dG*dG*d[5mC]*d[5mC]*dG*d[5mC]*dG*d[5mC]*k[5mC]*kG*kG) [compound 798735] .
Solution: 0

Problem: Now consider 799863 (kG*kG*k[5mC]*dT*d[5mC]*d[5mC]*d[5mC]*d[5mC]*d[5mC]*dA*d[5mC]*d[5mC]*dG*k[5mC]*kA*kT; antisense) [compound 799863] .
Solution: 16

Problem: Now consider 799966 (antisense kG*kT*kG*dG*dA*dA*dG*dG*d[5mC]*dT*dG*dA*d[5mC]*k[5mC]*kT*kG) [compound 799966] .
Solution: 35

Problem: Now consider 830211 (kA*kG*kA*d[5mC]*d[5mC]*dG*dG*dA*dA*dG*dT*d[5mC]*dT*kT*kG*kT; antisense) [compound 830211] .
Solution: 30

Problem: Now consider 798863 (kG*kG*kG*dT*dT*dG*dT*d[5mC]*d[5mC]*dA*dG*dT*dG*kT*kG*kG; antisense) [compound 798863] .
Solution: 41

Problem: Now consider 800044 (k[5mC]*k[5mC]*kT*dG*dA*dG*dA*dT*d[5mC]*dG*dA*dG*dG*kT*kG*k[5mC]; antisense) [compound 800044] .
Solution: 18

Problem: Now consider 798868 (kA*k[5mC]*k[5mC]*dT*dT*dG*dT*dG*dT*dA*d[5mC]*d[5mC]*dA*kA*k[5mC]*kA; antisense) [compound 798868] .
Solution: 48

Problem: Now consider 830101 (kG*k[5mC]*k[5mC]*d[5mC]*dG*d[5mC]*dT*d[5mC]*dT*d[5mC]*dA*dG*d[5mC]*k[5mC]*kA*kG; antisense) [compound 830101] .
Solution: 46

Problem: Now consider 798681 (antisense kG*kA*kA*d[5mC]*dA*dT*dG*dA*d[5mC]*d[5mC]*dT*d[5mC]*d[5mC]*kG*k[5mC]*kA) [compound 798681] .
Solution: 29

Problem: Now consider 830129 (antisense k[5mC]*kA*k[5mC]*d[5mC]*dT*d[5mC]*d[5mC]*dG*dA*dG*dG*d[5mC]*dA*k[5mC]*k[5mC]*kA) [compound 830129] .
Solution: 41

Problem: Now consider 830080 (kT*kA*kT*dA*d[5mC]*d[5mC]*d[5mC]*dT*dG*d[5mC]*dA*d[5mC]*dT*kT*kT*k[5mC]; antisense) [compound 830080] .
Solution: 32

Problem: Now consider 799961 (antisense k[5mC]*k[5mC]*kT*dA*dA*dA*dA*d[5mC]*dA*dG*dG*dG*dT*kT*k[5mC]*k[5mC]) [compound 799961] .
Solution: 20

Problem: Now consider 798887 (k[5mC]*kT*kG*dA*dT*d[5mC]*dT*dG*d[5mC]*dA*d[5mC]*dG*dG*kT*kA*kA; antisense) [compound 798887] .
Solution: 26

Problem: Now consider 830026 (antisense kT*kT*kT*dT*dG*dT*dA*dA*dA*dT*d[5mC]*dG*dA*kA*kA*kG) [compound 830026] .
Solution: 0

Problem: Now consider 799454 (antisense kT*kT*kA*dA*dA*dG*dA*d[5mC]*dA*dG*dA*dG*dG*kA*kG*k[5mC]) [compound 799454] .
Solution: 55

Problem: Now consider 798665 (k[5mC]*kA*kG*dT*d[5mC]*dT*d[5mC]*d[5mC]*d[5mC]*dG*dG*dA*dG*kG*k[5mC]*k[5mC]; antisense) [compound 798665] .
Solution: 7

Problem: Now consider 830015 (antisense kG*k[5mC]*kT*dG*dG*dT*dG*d[5mC]*d[5mC]*dA*dG*dT*d[5mC]*kT*k[5mC]*kA) [compound 830015] .
Solution: 56

Problem: Now consider 830077 (k[5mC]*k[5mC]*kA*d[5mC]*dA*dT*dT*d[5mC]*dA*dG*dG*dG*dT*kG*kT*k[5mC]; antisense) [compound 830077] .
Solution: 37

Problem: Now consider 830065 (kA*kA*kT*dG*dG*dT*dG*d[5mC]*dT*d[5mC]*dT*dG*d[5mC]*k[5mC]*k[5mC]*kT; antisense) [compound 830065] .
Solution: 43

Problem: Now consider 799449 (antisense k[5mC]*kA*kG*d[5mC]*dA*d[5mC]*dT*dG*d[5mC]*dA*dT*d[5mC]*dG*kG*kA*kA) [compound 799449] .
Solution: 37

Problem: Now consider 830149 (antisense kA*kG*kG*dA*d[5mC]*dT*dG*dG*dT*d[5mC]*dT*dT*d[5mC]*kA*k[5mC]*k[5mC]) [compound 830149] .
Solution: 47

Problem: Now consider 799446 (antisense kG*kA*k[5mC]*d[5mC]*dT*dA*dA*dT*d[5mC]*dT*d[5mC]*dT*dT*kT*k[5mC]*kA) [compound 799446] .
Solution: 48

* * *

Task for the reader: assign each of the following substances its reported % inhibition of SMAD7 mRNA expression.
# Tested on: human SMAD7 mRNA
# Measurement Protocol: Antisense inhibition of human SMAD7 mRNA expression in Hep3B cells by 5-10-5 MOE gapmers, single concentration, electroporation, RT-PCR (Example 1, Study 1 and 2)
# Format: cell-based
# Condition Set: electroporation, 5,000 nM, approximately 24 hours, relative to untreated control cells, gapmers targeting SEQ ID NO: 1 and 2
# Method: Antisense oligonucleotides were designed to target human SMAD7 mRNA and were tested for their effects on SMAD7 mRNA expression in vitro. […] After a treatment period of approximately 24 hours, RNA was isolated from the cells and SMAD7 mRNA levels were measured by quantitative real-time PCR. […] SMAD7 mRNA levels were adjusted according to total RNA content, as measured by RIBOGREEN®. […]
Strand notation (5' to 3'): a small letter for the sugar, then the base; units joined by * are phosphorothioate-linked, units joined directly phosphodiester-linked; [ ] holds rarer units or linkages, { } end groups; capitals alone tell only the bases. e = 2'-O-(2-methoxyethyl) (MOE); [5mC] = 5-methylcytosine; d = 2'-deoxy (DNA)
Value expressed in %; do not type the unit.

Problem: Could you share which % inhibition of SMAD7 mRNA expression value was measured for 771891 (antisense e[5mC]*eT*e[5mC]*e[5mC]*e[5mC]*dA*dA*dG*d[5mC]*d[5mC]*dT*dA*d[5mC]*dA*dT*eA*eT*eT*eT*e[5mC]) [compound 771891] ?
Solution: 65

Problem: Now consider 771859 (antisense e[5mC]*e[5mC]*eA*eG*eA*dA*dA*dA*dT*dG*d[5mC]*dA*dG*dA*d[5mC]*eA*eG*e[5mC]*eT*eA) [compound 771859] .
Solution: 43

Problem: Now consider 771843 (antisense e[5mC]*eG*e[5mC]*e[5mC]*eG*dG*d[5mC]*d[5mC]*d[5mC]*dA*d[5mC]*d[5mC]*dA*dA*d[5mC]*e[5mC]*eT*e[5mC]*eT*eG) [compound 771843] .
Solution: 19
